The entries below come with measured Selectivity of PI3Kα vs PI3Kδ values attached.
- TARGET_SYSTEM: PI3Kα (Homo sapiens, UniProt P42336)
- Construct: purchased Promega V1721
- Sequence (P42336 whole entry): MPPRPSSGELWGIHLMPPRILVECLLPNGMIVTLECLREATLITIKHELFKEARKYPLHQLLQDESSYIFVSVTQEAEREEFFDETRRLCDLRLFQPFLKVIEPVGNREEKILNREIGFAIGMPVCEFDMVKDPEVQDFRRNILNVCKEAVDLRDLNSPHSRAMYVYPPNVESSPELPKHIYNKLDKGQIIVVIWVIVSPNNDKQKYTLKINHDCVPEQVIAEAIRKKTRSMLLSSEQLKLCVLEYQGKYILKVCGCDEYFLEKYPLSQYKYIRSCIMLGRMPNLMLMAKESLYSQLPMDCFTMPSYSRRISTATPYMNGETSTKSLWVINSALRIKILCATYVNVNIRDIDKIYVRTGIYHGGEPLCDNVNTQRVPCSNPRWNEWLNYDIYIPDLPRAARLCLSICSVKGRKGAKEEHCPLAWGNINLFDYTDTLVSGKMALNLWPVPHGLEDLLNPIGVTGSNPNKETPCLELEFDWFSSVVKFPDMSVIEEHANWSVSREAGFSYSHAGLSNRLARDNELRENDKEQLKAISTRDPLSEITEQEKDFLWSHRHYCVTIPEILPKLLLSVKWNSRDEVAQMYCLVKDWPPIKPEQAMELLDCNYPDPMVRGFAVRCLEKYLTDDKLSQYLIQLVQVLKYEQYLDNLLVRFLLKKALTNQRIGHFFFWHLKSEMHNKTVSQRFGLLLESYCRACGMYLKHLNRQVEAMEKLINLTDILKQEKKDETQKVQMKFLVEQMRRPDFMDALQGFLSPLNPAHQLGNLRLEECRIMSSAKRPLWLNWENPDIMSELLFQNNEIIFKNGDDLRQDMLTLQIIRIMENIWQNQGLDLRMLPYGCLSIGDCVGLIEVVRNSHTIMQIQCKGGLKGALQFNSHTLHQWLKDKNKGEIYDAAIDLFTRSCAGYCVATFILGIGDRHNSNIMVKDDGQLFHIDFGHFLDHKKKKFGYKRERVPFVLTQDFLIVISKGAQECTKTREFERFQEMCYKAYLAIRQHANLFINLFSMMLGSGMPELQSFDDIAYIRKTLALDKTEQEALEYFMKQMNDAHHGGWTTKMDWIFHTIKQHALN
- Sequence (P27986 whole entry partner): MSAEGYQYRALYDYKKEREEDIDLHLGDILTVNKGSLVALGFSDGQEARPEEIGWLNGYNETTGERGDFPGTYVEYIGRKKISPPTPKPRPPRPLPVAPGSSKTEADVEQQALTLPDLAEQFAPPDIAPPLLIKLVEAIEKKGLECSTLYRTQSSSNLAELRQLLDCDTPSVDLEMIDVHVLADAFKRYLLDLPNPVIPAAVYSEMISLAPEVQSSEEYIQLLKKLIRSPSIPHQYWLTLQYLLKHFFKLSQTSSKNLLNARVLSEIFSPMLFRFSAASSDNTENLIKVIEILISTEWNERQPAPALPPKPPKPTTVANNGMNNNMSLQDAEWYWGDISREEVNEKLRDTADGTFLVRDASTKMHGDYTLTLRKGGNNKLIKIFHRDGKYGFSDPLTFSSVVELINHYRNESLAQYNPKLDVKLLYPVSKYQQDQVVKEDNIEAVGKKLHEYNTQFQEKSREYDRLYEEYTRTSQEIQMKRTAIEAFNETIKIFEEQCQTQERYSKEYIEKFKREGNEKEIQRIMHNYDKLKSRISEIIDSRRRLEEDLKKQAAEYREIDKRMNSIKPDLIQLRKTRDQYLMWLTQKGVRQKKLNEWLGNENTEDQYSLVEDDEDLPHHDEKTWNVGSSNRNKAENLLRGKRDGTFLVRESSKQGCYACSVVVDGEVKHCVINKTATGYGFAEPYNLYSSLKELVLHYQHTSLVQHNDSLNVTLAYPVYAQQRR
- TEST_DETAILS: ADP-Glo lipid kinase assay, PI3Kα kinase activity
- Assay type: biochemical
- COND: ratio of IC50 PI3Kδ to IC50 PI3Kα
Keep it simple and answer with nothing but the number.

Known Selectivity of PI3Kα vs PI3Kδ results, listed for orientation:
C[C@H](Nc1ccc2c(c1)OCCn1cc(N3C(=O)CC[C@H]3C(F)F)nc1-2)C(N)=O	90
C[C@H](Nc1ccc2c(c1)OCCn1cc(N3C(=O)SC[C@H]3C(F)F)nc1-2)C(N)=O	245
C[C@H](Nc1ccc2c(c1)OCCn1cc(N3C(=O)OC[C@H]3CC#N)nc1-2)C(N)=O	38

Case C[C@H](Nc1ccc2c(c1)OCCn1cc(N3C(=O)CC[C@H]3CC#N)nc1-2)C(N)=O , PI3Kα (Homo sapiens, UniProt P42336), Selectivity of PI3Kα vs PI3Kδ recorded as 112

Observed Selectivity of PI3Kα vs PI3Kδ, PI3Kα (Homo sapiens, UniProt P42336), COC[C@H](Nc1ccc2c(c1)OCCn1cc(N3C(=O)OC[C@H]3CC#N)nc1-2)C(N)=O : 43

So the reported Selectivity of PI3Kα vs PI3Kδ for C[C@H](Nc1ccc2c(c1)OCCn1cc(N3C(=O)SC[C@H]3CC#N)nc1-2)C(N)=O , on PI3Kα (Homo sapiens, UniProt P42336), turned out to be 30

###

- TEST_DETAILS: Toxicokinetics in the 7-day repeated intragastric administration study in SD rats
- Format: in vivo, Sprague-Dawley (SD) rats
- COND: Sprague-Dawley, rat, plasma, po, 60 mg/kg intragastric, after the first administration, female, read-out: average system exposure AUC
- Description: Liquid chromatography−mass spectrometry (detector: API4000, electrospray source (ESI) positive ion mode, column: Agilent ZORBAX XDB-C18 (3.5 μm, 2.1×50 mm)), which was used for the biological analysis of plasma sample. 1) In the experiment, 112 rats (56 rats/sex) were divided into 14 groups by sex and body weight, wherein 70 rats were used for toxicology study (groups 1 to 7, 5 rats/sex/group) and 42 rats were used for toxicokinetics study (groups 8 to 14, 3 rats/sex/group). […]
VALUE_KIND: AUC (ng·h/mL)
Please give a number only; it is taken to be in ng·h/mL.

molecule C[C@H](Nc1ccc2c(c1)OCCn1cc(N3C(=O)OC[C@H]3C(F)F)nc1-2)C(N)=O [GDC-0077, reference compound] , AUC observed: 22800

###

The compounds listed here are annotated with their Tmax.
- TEST_DETAILS: Pharmacokinetic (PK) assay in mice
- Format: in vivo
- COND: male, Balb/c, mouse, plasma, po, single intragastric 5 mg/kg, read-out: Peak time tmax
- Description: […] The main parameters were calculated using WinNonlin 6.1.
Please respond with the number in min and leave the unit unwritten.

Some entries whose results are on file:
COC[C@H](Nc1ccc2c(c1)OCCn1cc(N3C(=O)OC[C@H]3C(F)F)nc1-2)C(N)=O [Example 90]	30
NC(=O)[C@@H]1CCCN1c1ccc2c(c1)OCCn1cc(N3C(=O)SC[C@H]3C(F)F)nc1-2 [Example 111]	30

With those in mind, consider the next compound.
Tmax measured on C[C@@H](C(N)=O)N(C)c1ccc2c(c1)OCCn1cc(N3C(=O)OC[C@H]3C(F)F)nc1-2 [Example 43] = 30

###

The reader will find reported Selectivity of PI3Kα vs PI3Kβ values listed item by item below.
- TARGET_SYSTEM: PI3Kα (Homo sapiens, UniProt P42336)
- Construct: purchased Promega V1721
- TEST_DETAILS: ADP-Glo lipid kinase assay, PI3Kα kinase activity
- Assay type: biochemical
- COND: ratio of IC50 PI3Kβ to IC50 PI3Kα
Reply with just the number.

C[C@H](Nc1ccc2c(c1)OCCn1cc(N3C(=O)CC[C@H]3CC#N)nc1-2)C(N)=O [Example 117]	779
COC[C@H](Nc1ccc2c(c1)OCCn1cc(N3C(=O)OC[C@H]3CC#N)nc1-2)C(N)=O [Example 120]	210
C[C@H](Nc1ccc2c(c1)OCCn1cc(N3C(=O)COC[C@H]3C(F)F)nc1-2)C(N)=O [Example 68]	521
C[C@H](Nc1ccc2c(c1)OCCn1cc(N3C(=O)OC[C@H]3CC#N)nc1-2)C(N)=O [Example 118]	146
C[C@H](Nc1ccc2c(c1)OCCn1cc(N3C(=O)CN(C)C[C@H]3C(F)F)nc1-2)C(N)=O [Example 69]	1514

Selectivity of PI3Kα vs PI3Kβ for PI3Kα (Homo sapiens, UniProt P42336) with input C[C@H](Nc1ccc2c(c1)OCCn1cc(N3C(=O)SC[C@H]3CC#N)nc1-2)C(N)=O [Example 119] equals 170

Field Selectivity of PI3Kα vs PI3Kβ (system: PI3Kα (Homo sapiens, UniProt P42336)) for entry C[C@H](Nc1ccc2c(c1)OCCn1cc(N3CC(F)(F)COC3=O)nc1-2)C(N)=O [Example 66] = 492

Given the molecule C[C@H](Nc1ccc2c(c1)OCCn1cc(N3C(=O)SC[C@H]3C(F)F)nc1-2)C(N)=O [Example 51] and test system PI3Kα (Homo sapiens, UniProt P42336), the measured Selectivity of PI3Kα vs PI3Kβ is 840

###

- TEST_DETAILS: Pharmacokinetic (PK) assay in mice
- Type: in vivo
- COND: male, Balb/c, mouse, plasma, po, single intragastric 5 mg/kg, read-out: Plasma concentration Cmax
Binary call on Cmax: Condition met from 1000 ng/mL upward, Condition not met beneath that.

Problem: Hi team, for C[C@H](Nc1ccc2c(c1)OCCn1cc(N3C(=O)COC[C@H]3C(F)F)nc1-2)C(N)=O , is the recorded Cmax at or above 1000 ng/mL?
Solution: Condition not met

Problem: Please indicate if the recorded Cmax for C[C@H](Nc1ccc2c(c1F)OCCn1cc(N3C(=O)SC[C@H]3C(F)F)nc1-2)C(N)=O meets or exceeds 1000 ng/mL.
Solution: Condition met

Problem: Could you please find out whether C[C@H](Nc1ccc2c(c1)OCCn1cc(N3C(=O)SC[C@H]3C(F)F)nc1-2)C(N)=O has Cmax that meets 1000 ng/mL or exceeds it?
Solution: Condition met

Problem: Would you say C[C@H](Nc1ccc2c(c1)OCCn1cc(N3C(=O)N(C)C[C@H]3C(F)F)nc1-2)C(N)=O shows Cmax at minimum 1000 ng/mL?
Solution: Condition met

Problem: Please check the record C[C@H](Nc1ccc2c(c1F)OCCn1cc(N3C(=O)OC[C@H]3C(F)F)nc1-2)C(N)=O and state if its Cmax is at or above 1000 ng/mL.
Solution: Condition met

Problem: Answer whether Cmax of NC(=O)[C@@H]1CCCN1c1ccc2c(c1)OCCn1cc(N3C(=O)SC[C@H]3C(F)F)nc1-2 is greater than or equal to 1000 ng/mL.
Solution: Condition not met

Problem: Identify whether the reported Cmax of the following compound is 1000 ng/mL or greater: COC[C@H](Nc1ccc2c(c1)OCCn1cc(N3C(=O)OC[C@H]3C(F)F)nc1-2)C(N)=O
Solution: Condition met

Problem: # bool: Cmax of COC[C@H](Nc1ccc2c(c1)OCCn1cc(N3C(=O)SC[C@H]3C(F)F)nc1-2)C(N)=O >= 1000 ng/mL
Solution: Condition met

Problem: Cmax >= 1000 ng/mL for C[C@H](Nc1ccc2c(c1)OCCn1cc(N3C(=O)O[C@H](C)[C@H]3C(F)F)nc1-2)C(N)=O ?
Solution: Condition not met

Problem: Reported Cmax at or above 1000 ng/mL? C[C@@H](C(N)=O)N(C)c1ccc2c(c1)OCCn1cc(N3C(=O)OC[C@H]3C(F)F)nc1-2
Solution: Condition met

###

- TEST_DETAILS: Pharmacokinetic (PK) assay in mice
- Assay type: in vivo
- COND: male, Balb/c, mouse, plasma, po, single intragastric 5 mg/kg, read-out: Half-life t1/2(h) (converted)
VALUE_KIND: half-life (h)
Enter your answer as a number in h; do not include the unit.

C[C@H](Nc1ccc2c(c1)OCCn1cc(N3C(=O)SC[C@H]3C(F)F)nc1-2)C(N)=O	1.6
C[C@H](Nc1ccc2c(c1)OCCn1cc(N3C(=O)O[C@H](C)[C@H]3C(F)F)nc1-2)C(N)=O	1.8
NC(=O)[C@@H]1CCCN1c1ccc2c(c1)OCCn1cc(N3C(=O)SC[C@H]3C(F)F)nc1-2	2.8

molecule C[C@H](Nc1ccc2c(c1F)OCCn1cc(N3C(=O)OC[C@H]3C(F)F)nc1-2)C(N)=O , half-life observed: 1.2

Query C[C@H](Nc1ccc2c(c1F)OCCn1cc(N3C(=O)SC[C@H]3C(F)F)nc1-2)C(N)=O yields half-life of 2

Lab note: COC[C@H](Nc1ccc2c(c1)OCCn1cc(N3C(=O)OC[C@H]3C(F)F)nc1-2)C(N)=O gave half-life of 1

// C[C@H](Nc1ccc2c(c1)OCCn1cc(N3C(=O)COC[C@H]3C(F)F)nc1-2)C(N)=O : half-life value = 1.6
